Reference source for all entries: PubChem BioAssay AID2528

Target: RecQ-like DNA helicase BLM (Homo sapiens)
Experiment: qHTS Assay for Inhibitors of Bloom's syndrome helicase (BLM); further: nearly all actives have a fitted effect of over 35% in size
Settings: recombinant BLM DNA unwinding, fluorescence dequenching; series mostly up to 56.1 µM
Experimental: Survival of cells and the faithful propagation of the genome depend on elaborate mechanisms of detecting and repairing DNA damage. […] The validation assay was a fluorescence quenching based kinetic qHTS for BLM Helicase DNA unwinding. The activity was measured as ATP-dependent separation of a 20-bp DNA duplex extended by 30-nt single-stranded tails (forked duplex). […] Strand separation results in an increase in the fluorescence of TAMRA (excitation 525 nm, emission 598 nm). […]
Out of some 350,000 compounds screened, about 700 (0.2%) were called active. The call rests on the fitted dose curve; in most records, active means well fitted inhibition curve with a large enough effect; inconclusive means small, poorly fitted or top-dose-only effect; inactive means flat fitted curve, though single readings scatter. This excerpt belongs to a sample that is enriched for actives.
Mark one answer only. Choices: t for active, f for inactive

Here are 5 molecules together with their reported answers.
COc1cccc(N2C(=O)NC(=O)/C(=C\c3ccc([N+](=O)[O-])s3)C2=O)c1	f
C[C@H]1C/C=C/[C@@H]2[C@@H]3O[C@]3(C)[C@@H](C)[C@H]3[C@H](Cc4ccccc4)NC(=O)[C@]32OC(=O)O/C=C/[C@](C)(O)C1=O	f
CN(C)C[C@H]1CCCC[C@]1(O)c1cccc(O)c1	f
COc1ccc(N2C(=O)/C(=C/c3ccco3)C(=O)NC2=S)cc1	t
CCN(CC)c1nc(C)cc(OP(=S)(OC)OC)n1	f

Input line: Please indicate how the test categorized O=C(OCC1O[C@@H](OC(=O)c2cc(O)c(O)c(O)c2)[C@@H](OC(=O)c2cc(O)c(O)c(O)c2)[C@@H](OC(=O)c2cc(O)c(O)c(O)c2)[C@@H]1OC(=O)c1cc(O)c(O)c(O)c1)c1cc(O)c(O)c(O)c1 (stereo partly drawn) .
Output line: t

Input line: What call does the record list for `C[C@]12O[C@H](C[C@@]1(O)C(=O)O)n1c3ccccc3c3c4c(c5c6ccccc6n2c5c31)CNC4=O` ?
Output line: f

Input line: Name the outcome recorded for `CCCCCCCCCCCCN=C(N)N` in the assay.
Output line: f

* * *

target: RecQ-like DNA helicase BLM (Homo sapiens); assay: qHTS Assay for Inhibitors of Bloom's syndrome helicase (BLM); conditions: recombinant BLM DNA unwinding, fluorescence dequenching; series mostly up to 56.1 µM; further: nearly all actives have a fitted effect of over 35% in size
Screen size: about 350,000 compounds; about 700 (0.2%) were called active. Only a selection was taken, and actives are over-represented in it overall.
assay_endpoint: outcome

CC(=O)[O][Sn]([c]1ccccc1)([c]1ccccc1)[c]1ccccc1	inactive
COC([CH2][Hg])CNC(=O)c1ccccc1OCC(=O)O (stereo not drawn)	inactive
CC(C)(Cc1c[nH]c2ccc(Cl)cc12)NCCOc1ccccc1OCC1CC1	inactive
